- System: PC-3
- procedure details: Cytotoxicity against human PC3 cells after 96 hrs by SRB assay
- measurement conditions: PC-3, 96 h

compound | IC50
COc1cc(C(=O)c2csc(-c3ncccn3)n2)cc(OC)c1OC | 2.66 µM
COc1cc(C(=O)c2csc(-c3ccncc3)n2)cc(OC)c1OC | > 20 µM
CC(=O)Nc1ccc(C2N[C@H](C(=O)Nc3ccc4c(c3)Cc3ccccc3-4)CS2)cc1 (mixture of isomers) | 2.1 µM
CCc1ccc(-c2nc(C(=O)c3cc(OC)c(OC)c(OC)c3)cs2)cc1 | 0.027 µM
COc1cc(C(=O)c2csc(-c3ccc(Br)cc3)n2)cc(OC)c1OC | 0.018 µM
COc1cc(OC)cc(C(=O)c2csc(-c3ccccc3)n2)c1 | 0.301 µM
CCCCCCCCCCCCCCCCC(=O)c1csc(-c2ccccc2)n1 | > 20 µM
COc1cc(C(=O)c2csc(-c3ccc(C(=O)O)cc3)n2)cc(OC)c1OC | > 20 µM
O=C(c1ccccn1)c1csc(-c2ccccc2)n1 | > 20 µM
COc1ccc(C(=O)c2csc(-c3ccccc3)n2)cc1 | > 20 µM
O=C(c1csc(-c2ccccc2)n1)c1ccccc1F | > 20 µM
COc1cc(C(=O)c2csc(-c3ccc(F)cc3)n2)cc(OC)c1OC | 0.013 µM
